Recorded pEC50 values for a group of molecules are listed next.
# measured_on: human RXFP1 (Homo sapiens)
# Sequence (Q9HBX9 whole entry): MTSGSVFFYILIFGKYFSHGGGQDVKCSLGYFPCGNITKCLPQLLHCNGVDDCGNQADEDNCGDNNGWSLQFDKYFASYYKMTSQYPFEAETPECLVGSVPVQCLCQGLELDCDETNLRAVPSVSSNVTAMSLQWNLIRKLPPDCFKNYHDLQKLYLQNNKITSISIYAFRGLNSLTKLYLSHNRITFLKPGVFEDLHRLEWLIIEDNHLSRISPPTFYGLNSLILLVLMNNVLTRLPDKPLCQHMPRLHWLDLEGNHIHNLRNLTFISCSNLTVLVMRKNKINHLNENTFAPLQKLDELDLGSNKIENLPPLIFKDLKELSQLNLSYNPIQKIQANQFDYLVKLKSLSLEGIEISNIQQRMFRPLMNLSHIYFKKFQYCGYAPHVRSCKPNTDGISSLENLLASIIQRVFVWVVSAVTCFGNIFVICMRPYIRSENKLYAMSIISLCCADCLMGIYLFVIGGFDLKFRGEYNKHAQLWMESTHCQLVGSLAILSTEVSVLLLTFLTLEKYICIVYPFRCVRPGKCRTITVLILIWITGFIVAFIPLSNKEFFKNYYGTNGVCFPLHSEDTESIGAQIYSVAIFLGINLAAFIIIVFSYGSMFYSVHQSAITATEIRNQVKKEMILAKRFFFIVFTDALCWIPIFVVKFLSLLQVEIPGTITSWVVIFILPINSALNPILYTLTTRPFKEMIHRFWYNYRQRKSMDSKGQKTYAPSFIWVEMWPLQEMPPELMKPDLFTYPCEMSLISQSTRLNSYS
# experiment_notes: human RXFP1 (hRXFP1) HEK293 cAMP assay (HTRF)
# measurement_parameters: HEK293 cells stably expressing human RXFP1, 30 min at room temperature
pEC50: −log10 of the molar value.

>  <molecule>
COc1nn(-c2cccc(C(=O)O)c2)cc1C(=O)N[C@@H]1C2CCC(/C2=C/C(F)(F)F)[C@@H]1C(=O)Nc1ccc(F)c(C(F)(F)F)c1 (stereo partly drawn) [Example 53]

>  <pEC50>
5.80

$$$$
>  <molecule>
COc1ncc(C(=O)NCC2(S(C)(=O)=O)CC2)cc1C(=O)N[C@H]1[C@@H](C(=O)N[C@H](C)C2(C)CC2)[C@H]2CC[C@@H]1/C2=C\C1CC1 [Example 149]

>  <pEC50>
8.57

$$$$
>  <molecule>
COc1ncc(C2=NOC3CC(CO)CC23)cc1C(=O)N[C@@H]1C2CCC(/C2=C/C2CC2)[C@@H]1C(=O)Nc1ccc(F)c(C(F)(F)F)c1 (single isomer, unassigned) [Example 70]

>  <pEC50>
8.64

$$$$
